The reported numbers originate from PubChem BioAssay AID1963436.

# Test system: OVCAR-5 complex spheroid (HUVEC/MSC), viability % T/C
# METHOD_SUMMARY: Anticancer human tumor OVCAR-5 cell line growth inhibition [Asc];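 also: spheroids exposed to agents for 7 days before readout; 100% = DMSO vehicle-treated wells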
# CONDITIONS_USED: second compound 0.949 µM; first compound 0.316 µM; hits give low values
Parameter: viability, T/C. Scope: all listed entries.
Please reply with the bare figure in % and do not write the unit itself.

CNC(C)C(=O)NC1CN(S(=O)(=O)c2cccc(S(=O)(=O)N3CCC4CCC(C(=O)NC(c5ccccc5)c5ccccc5)N4C(=O)C(NC(=O)C(C)NC)C3)c2)CCC2CCC(C(=O)NC(c3ccccc3)c3ccccc3)N2C1=O (stereo not drawn) + CCN1C(C(=O)NC23CCC(C(=O)O)(CC2)CC3)C(c2cccc(Cl)c2F)C2(C(=O)Nc3cc(Cl)ccc32)C12CCCCC2 = 85.1
O=C(c1ccc(F)c(F)c1Nc1ccc(I)cc1F)N1CC(O)([C@@H]2CCCCN2)C1 + CCN1C(C(=O)NC23CCC(C(=O)O)(CC2)CC3)C(c2cccc(Cl)c2F)C2(C(=O)Nc3cc(Cl)ccc32)C12CCCCC2 = 40

Record C#Cc1c(F)ccc2cc(O)cc(-c3ncc4c(N5CC6CCC(C5)N6)nc(OCC56CCCN5CC(F)C6)nc4c3F)c12 (stereo not drawn) + CCN1C(C(=O)NC23CCC(C(=O)O)(CC2)CC3)C(c2cccc(Cl)c2F)C2(C(=O)Nc3cc(Cl)ccc32)C12CCCCC2 . Reported viability, T/C: 102

###

Each item that follows carries a reported viability, T/C.
# Test system: OVCAR-5 complex spheroid (HUVEC/MSC), viability % T/C
# METHOD_SUMMARY: Anticancer human tumor OVCAR-5 cell line growth inhibition [Asc];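 also: spheroids exposed to agents for 7 days before readout; 100% = DMSO vehicle-treated wells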
# CONDITIONS_USED: second compound 1 µM; first compound 3.16 µM; hits give low values
Quick note: give the figure in %, leave out the unit.

Answered examples (2):
O=C(c1cc(Cc2n[nH]c(=O)c3ccccc23)ccc1F)N1CCN(C(=O)C2CC2)CC1 + CNC(C)C(=O)NC1CN(S(=O)(=O)c2cccc(S(=O)(=O)N3CCC4CCC(C(=O)NC(c5ccccc5)c5ccccc5)N4C(=O)C(NC(=O)C(C)NC)C3)c2)CCC2CCC(C(=O)NC(c3ccccc3)c3ccccc3)N2C1=O = 65.3
O=C(c1cc(Cc2n[nH]c(=O)c3ccccc23)ccc1F)N1CCN(C(=O)C2CC2)CC1 + Cc1c(S(C)(=O)=O)c(-c2cc(F)cc(N3CCN(c4ccc(NS(=O)(=O)c5ccc(NC(CCN6CCC(C(=O)OCCCP(=O)(O)O)CC6)CSc6ccccc6)c(S(=O)(=O)C(F)(F)F)c5)cc4)CC3)c2)c(-c2ccc(Cl)cc2)n1C(C)C = 78.4

Here is the next item to consider.
Response field viability, T/C (OVCAR-5 complex spheroid (HUVEC/MSC), viability % T/C) for item C=CC(=O)N1CCN(c2nc(=O)n(-c3c(C)ccnc3C(C)C)c3nc(-c4c(O)cccc4F)c(F)cc23)C(C)C1 (stereo not drawn) + CNC(C)C(=O)NC1CN(S(=O)(=O)c2cccc(S(=O)(=O)N3CCC4CCC(C(=O)NC(c5ccccc5)c5ccccc5)N4C(=O)C(NC(=O)C(C)NC)C3)c2)CCC2CCC(C(=O)NC(c3ccccc3)c3ccccc3)N2C1=O : 103

###

# System: OVCAR-5 complex spheroid (HUVEC/MSC), viability % T/C
# METHOD_SUMMARY: Anticancer human tumor OVCAR-5 cell line growth inhibition [Asc];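 also: spheroids exposed to agents for 7 days before readout; 100% = DMSO vehicle-treated wells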
# CONDITIONS_USED: second compound 0.01 µM; first compound 0.0316 µM; hits give low values
Below: a set of entries, each annotated with reported viability, T/C.
Enter your answer as a number in %; do not include the unit.

Worked cases, answers included:
O=C(c1cc(Cc2n[nH]c(=O)c3ccccc23)ccc1F)N1CCN(C(=O)C2CC2)CC1 + CNC(C)C(=O)NC1CN(S(=O)(=O)c2cccc(S(=O)(=O)N3CCC4CCC(C(=O)NC(c5ccccc5)c5ccccc5)N4C(=O)C(NC(=O)C(C)NC)C3)c2)CCC2CCC(C(=O)NC(c3ccccc3)c3ccccc3)N2C1=O = 97.3
O=C(c1ccc(F)c(F)c1Nc1ccc(I)cc1F)N1CC(O)([C@@H]2CCCCN2)C1 + CNC(C)C(=O)NC1CN(S(=O)(=O)c2cccc(S(=O)(=O)N3CCC4CCC(C(=O)NC(c5ccccc5)c5ccccc5)N4C(=O)C(NC(=O)C(C)NC)C3)c2)CCC2CCC(C(=O)NC(c3ccccc3)c3ccccc3)N2C1=O = 62.6
C#Cc1c(F)ccc2cc(O)cc(-c3ncc4c(N5CC6CCC(C5)N6)nc(OCC56CCCN5CC(F)C6)nc4c3F)c12 (centres undefined) + CNC(C)C(=O)NC1CN(S(=O)(=O)c2cccc(S(=O)(=O)N3CCC4CCC(C(=O)NC(c5ccccc5)c5ccccc5)N4C(=O)C(NC(=O)C(C)NC)C3)c2)CCC2CCC(C(=O)NC(c3ccccc3)c3ccccc3)N2C1=O = 97
NC1CCC(NC2CC2c2ccccc2)CC1 (centres undefined) + CNC(C)C(=O)NC1CN(S(=O)(=O)c2cccc(S(=O)(=O)N3CCC4CCC(C(=O)NC(c5ccccc5)c5ccccc5)N4C(=O)C(NC(=O)C(C)NC)C3)c2)CCC2CCC(C(=O)NC(c3ccccc3)c3ccccc3)N2C1=O = 80.8
COc1c(OCCCN2CCOCC2)ccc2c3n(c(=NC(=O)c4cnc(N)nc4)nc12)CCN3 + CNC(C)C(=O)NC1CN(S(=O)(=O)c2cccc(S(=O)(=O)N3CCC4CCC(C(=O)NC(c5ccccc5)c5ccccc5)N4C(=O)C(NC(=O)C(C)NC)C3)c2)CCC2CCC(C(=O)NC(c3ccccc3)c3ccccc3)N2C1=O = 48
CCN1CCN(Cc2ccc(Nc3ncc(F)c(-c4cc(F)c5nc(C)n(C(C)C)c5c4)n3)nc2)CC1 + CNC(C)C(=O)NC1CN(S(=O)(=O)c2cccc(S(=O)(=O)N3CCC4CCC(C(=O)NC(c5ccccc5)c5ccccc5)N4C(=O)C(NC(=O)C(C)NC)C3)c2)CCC2CCC(C(=O)NC(c3ccccc3)c3ccccc3)N2C1=O = 67.7
Cn1ncnc1[C@H]1c2n[nH]c(=O)c3cc(F)cc(c23)N[C@@H]1c1ccc(F)cc1 + CNC(C)C(=O)NC1CN(S(=O)(=O)c2cccc(S(=O)(=O)N3CCC4CCC(C(=O)NC(c5ccccc5)c5ccccc5)N4C(=O)C(NC(=O)C(C)NC)C3)c2)CCC2CCC(C(=O)NC(c3ccccc3)c3ccccc3)N2C1=O = 92.3
C=CC(=O)N1CCN(c2nc(=O)n(-c3c(C)ccnc3C(C)C)c3nc(-c4c(O)cccc4F)c(F)cc23)C(C)C1 (centres undefined) + CNC(C)C(=O)NC1CN(S(=O)(=O)c2cccc(S(=O)(=O)N3CCC4CCC(C(=O)NC(c5ccccc5)c5ccccc5)N4C(=O)C(NC(=O)C(C)NC)C3)c2)CCC2CCC(C(=O)NC(c3ccccc3)c3ccccc3)N2C1=O = 88.4

Let's switch to this compound now.
Lab book: viability, T/C of C=C(F)C(=O)N1CCN(c2nc(OCC3CCCN3C)nc3c2CCN(c2cccc4cccc(Cl)c24)C3)CC1CC#N (centres undefined) + CNC(C)C(=O)NC1CN(S(=O)(=O)c2cccc(S(=O)(=O)N3CCC4CCC(C(=O)NC(c5ccccc5)c5ccccc5)N4C(=O)C(NC(=O)C(C)NC)C3)c2)CCC2CCC(C(=O)NC(c3ccccc3)c3ccccc3)N2C1=O noted as 105

###

# System: OVCAR-5 complex spheroid (HUVEC/MSC), viability % T/C
# METHOD_SUMMARY: Anticancer human tumor OVCAR-5 cell line growth inhibition [Asc];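 also: spheroids exposed to agents for 7 days before readout; 100% = DMSO vehicle-treated wells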
# CONDITIONS_USED: second compound 3.16 µM; first compound 1 µM; hits give low values
Doc: threshold 50% (exclusive). Items with viability, T/C beneath it return satisfied; others return not satisfied.

Inquiry: Say whether its viability, T/C is strictly beneath 50%. Entry: O=C(c1cc(Cc2n[nH]c(=O)c3ccccc23)ccc1F)N1CCN(C(=O)C2CC2)CC1 + Cc1c(S(C)(=O)=O)c(-c2cc(F)cc(N3CCN(c4ccc(NS(=O)(=O)c5ccc(NC(CCN6CCC(C(=O)OCCCP(=O)(O)O)CC6)CSc6ccccc6)c(S(=O)(=O)C(F)(F)F)c5)cc4)CC3)c2)c(-c2ccc(Cl)cc2)n1C(C)C
Reply text: not satisfied

Inquiry: Bench note: check whether O=C(c1ccc(F)c(F)c1Nc1ccc(I)cc1F)N1CC(O)([C@@H]2CCCCN2)C1 + Cc1c(S(C)(=O)=O)c(-c2cc(F)cc(N3CCN(c4ccc(NS(=O)(=O)c5ccc(NC(CCN6CCC(C(=O)OCCCP(=O)(O)O)CC6)CSc6ccccc6)c(S(=O)(=O)C(F)(F)F)c5)cc4)CC3)c2)c(-c2ccc(Cl)cc2)n1C(C)C shows viability, T/C below 50%
Reply text: satisfied

Inquiry: Here's an entry: C#Cc1c(F)ccc2cc(O)cc(-c3ncc4c(N5CC6CCC(C5)N6)nc(OCC56CCCN5CC(F)C6)nc4c3F)c12 (stereo not drawn) + Cc1c(S(C)(=O)=O)c(-c2cc(F)cc(N3CCN(c4ccc(NS(=O)(=O)c5ccc(NC(CCN6CCC(C(=O)OCCCP(=O)(O)O)CC6)CSc6ccccc6)c(S(=O)(=O)C(F)(F)F)c5)cc4)CC3)c2)c(-c2ccc(Cl)cc2)n1C(C)C . Is its viability, T/C below 50%?
Reply text: not satisfied

Inquiry: # check: viability, T/C < 50% for C=CC(=O)N1CCN(c2nc(=O)n(-c3c(C)ccnc3C(C)C)c3nc(-c4c(O)cccc4F)c(F)cc23)C(C)C1 (stereo not drawn) + Cc1c(S(C)(=O)=O)c(-c2cc(F)cc(N3CCN(c4ccc(NS(=O)(=O)c5ccc(NC(CCN6CCC(C(=O)OCCCP(=O)(O)O)CC6)CSc6ccccc6)c(S(=O)(=O)C(F)(F)F)c5)cc4)CC3)c2)c(-c2ccc(Cl)cc2)n1C(C)C
Reply text: not satisfied

Inquiry: Quick check: does C=C(F)C(=O)N1CCN(c2nc(OCC3CCCN3C)nc3c2CCN(c2cccc4cccc(Cl)c24)C3)CC1CC#N (stereo not drawn) + Cc1c(S(C)(=O)=O)c(-c2cc(F)cc(N3CCN(c4ccc(NS(=O)(=O)c5ccc(NC(CCN6CCC(C(=O)OCCCP(=O)(O)O)CC6)CSc6ccccc6)c(S(=O)(=O)C(F)(F)F)c5)cc4)CC3)c2)c(-c2ccc(Cl)cc2)n1C(C)C have viability, T/C under 50%?
Reply text: satisfied

Inquiry: Is it true that viability, T/C reported for CCN1CCN(Cc2ccc(Nc3ncc(F)c(-c4cc(F)c5nc(C)n(C(C)C)c5c4)n3)nc2)CC1 + Cc1c(S(C)(=O)=O)c(-c2cc(F)cc(N3CCN(c4ccc(NS(=O)(=O)c5ccc(NC(CCN6CCC(C(=O)OCCCP(=O)(O)O)CC6)CSc6ccccc6)c(S(=O)(=O)C(F)(F)F)c5)cc4)CC3)c2)c(-c2ccc(Cl)cc2)n1C(C)C is less than 50%?
Reply text: satisfied

Inquiry: Determine if COc1c(OCCCN2CCOCC2)ccc2c3n(c(=NC(=O)c4cnc(N)nc4)nc12)CCN3 + Cc1c(S(C)(=O)=O)c(-c2cc(F)cc(N3CCN(c4ccc(NS(=O)(=O)c5ccc(NC(CCN6CCC(C(=O)OCCCP(=O)(O)O)CC6)CSc6ccccc6)c(S(=O)(=O)C(F)(F)F)c5)cc4)CC3)c2)c(-c2ccc(Cl)cc2)n1C(C)C shows viability, T/C strictly lower than 50%.
Reply text: satisfied

Inquiry: Regarding CNC(C)C(=O)NC1CN(S(=O)(=O)c2cccc(S(=O)(=O)N3CCC4CCC(C(=O)NC(c5ccccc5)c5ccccc5)N4C(=O)C(NC(=O)C(C)NC)C3)c2)CCC2CCC(C(=O)NC(c3ccccc3)c3ccccc3)N2C1=O (stereo not drawn) + Cc1c(S(C)(=O)=O)c(-c2cc(F)cc(N3CCN(c4ccc(NS(=O)(=O)c5ccc(NC(CCN6CCC(C(=O)OCCCP(=O)(O)O)CC6)CSc6ccccc6)c(S(=O)(=O)C(F)(F)F)c5)cc4)CC3)c2)c(-c2ccc(Cl)cc2)n1C(C)C , kindly confirm whether its viability, T/C is beneath 50%.
Reply text: not satisfied
